# Tested on: morningglory (Ipomoea spp.)
# PROTOCOL_NOTES: Test A pre-/postemergence: morningglory
# Assay type: in vivo
# EXPERIMENTAL_CONDITIONS: Preemergence, 125 g ai/ha; 0 to 100 scale (0 no effect, 100 complete control)
READOUT_LABEL: Plant response rating, Morningglory
Just the number, please, no unit attached.

Recorded results for 5 compounds are shown here.
COc1nn(-c2ccc(F)cc2)nc1C(=O)c1ccnc(C(F)(F)F)c1 = 0
Cc1nn(-c2ccc(C(F)(F)F)cc2)nc1Oc1cccc(Cl)c1 = 0
COc1nn(-c2ccc(C(F)(F)F)cc2)nc1C(O)c1ccnc(C(F)(F)F)c1 (stereo not drawn) = 0
Cc1nn(-c2ccc(C(F)(F)F)cc2)nc1Cn1cc(C(F)(F)F)nc1Cl = 50
Cc1nn(-c2ccc(F)cc2)nc1Cn1cc(C(F)(F)F)nc1Cl = 20

Which Plant response rating, Morningglory is listed for Cc1nn(-c2ccc(C(F)(F)F)cc2)nc1Cn1c(Cl)nc(C(F)(F)F)c1Cl ?
0

Recorded Plant response rating, Morningglory for COc1nn(-c2ccc(C(F)(F)F)cc2)nc1C(C)(O)c1ccnc(C(F)(F)F)c1 (stereo not drawn) , please?
0

Given the compound Cc1nn(-c2ccc(C(F)F)cn2)nc1C(=O)c1cccc(C(F)(F)F)c1 , what is its reported Plant response rating, Morningglory?
0

# get_value(readout='Plant response rating, Morningglory', item= COc1nn(-c2ccc(C(F)(F)F)cc2)nc1Cn1nc(C(F)(F)F)cc1C(F)(F)F )
0

====

Entries and their Plant response rating, Barnyardgrass values follow.
# Test system: barnyardgrass (Echinochloa crus-galli)
# PROTOCOL_NOTES: Test C flooded paddy test: barnyardgrass
# Assay type: in vivo
# EXPERIMENTAL_CONDITIONS: Flood, 62 g ai/ha; scale 0 to 100 (0 no effect, 100 complete control)

Some solved cases for reference:
Cc1nn(-c2ccc(F)cc2)nc1Oc1cccc(C(F)(F)F)c1 [Compound 98] = 0
Cc1nn(-c2ccc(C(F)(F)F)cc2)nc1Oc1ccnc(OCC(F)(F)F)c1 [Compound 77] = 0
Cc1nn(-c2ccc(C(F)(F)F)cc2)nc1Oc1cccc(OC(F)(F)F)c1 [Compound 119] = 20

Tell me the measured Plant response rating, Barnyardgrass of Cc1nn(-c2ccc(F)cc2)nc1Cn1ccc(C(F)(F)F)n1 [Compound 95] , please.
0

So what does the record say about Plant response rating, Barnyardgrass for Cc1nn(-c2ccc(C(F)(F)F)cn2)nc1Oc1cccc(C(F)(F)F)c1 [Compound 109] ?
20

Query: Plant response rating, Barnyardgrass; subject: CCc1nn(-c2ccc(C(F)(F)F)cc2)nc1Cn1nc(C(F)(F)F)cc1C [Compound 131]
0

Any idea what its Plant response rating, Barnyardgrass is? The molecule is COc1nn(-c2ccc(C(F)(F)F)cc2)nc1C(C)(O)c1ccnc(C(F)(F)F)c1 (centres unmarked) [Compound 79]
0

What value of Plant response rating, Barnyardgrass has been reported for the following molecule? Cc1nn(-c2ccc(F)cc2)nc1Oc1cc(C(F)(F)F)nn1C [Compound 126]
0

Bench note: what Plant response rating, Barnyardgrass did Cc1nn(-c2ccc(C(F)(F)F)cc2)nc1Oc1cccc(Cl)c1 [Compound 84] show?
0

Quick one: Plant response rating, Barnyardgrass for Cc1nn(-c2ccc(C(F)(F)F)cc2)nc1Cn1cnc(C(F)(F)F)c1 [Compound 96] ?
10

Any idea what its Plant response rating, Barnyardgrass is? The molecule is FC(F)(F)c1ccc(-n2nc(Br)c(Cc3cccc(C(F)(F)F)c3)n2)nc1 [Compound 105]
0

====

# Tested on: rice (Oryza sativa)
# PROTOCOL_NOTES: Test C flooded paddy test: rice
# Assay type: in vivo
# EXPERIMENTAL_CONDITIONS: Flood (flooded paddy test), 250 g ai/ha; visual rating after 13 to 15 days, scale 0 to 100 (0 no effect, 100 complete control)
READOUT_LABEL: Plant response rating, Rice
Lab note: write the figure by itself, no unit.

A selection of reference data follows.
Cc1nn(-c2ccc(C(F)(F)F)cc2)nc1Cn1c(Cl)nc(C(F)(F)F)c1Cl [Compound 11] = 0
Cc1nn(-c2ccc(C(F)(F)F)cc2)nc1Sc1cccc(C(F)(F)F)c1 [Compound 88] = 0
Cc1nn(-c2ccc(F)cc2)nc1Cn1ccc(C(F)(F)F)n1 [Compound 95] = 0
Cc1nn(-c2nc(Cl)ns2)nc1C(=O)c1cccc(C(F)(F)F)c1 [Compound 59] = 0
Cc1nn(-c2ccnc(C(F)(F)F)c2)nc1C(=O)c1cccc(C(F)(F)F)c1 [Compound 49] = 0

// query Plant response rating, Rice value for entry Cc1nn(-c2ccc(C(F)(F)F)cc2)nc1Oc1ccnc(C(F)(F)F)c1 [Compound 120]
80

Need Plant response rating, Rice, item Cc1nn(-c2ccc(F)cc2)nc1Oc1cccc(C(F)(F)F)c1 [Compound 98]
40

Which value of Plant response rating, Rice has been reported for COc1nn(-c2ccc(C(F)(F)F)cc2)nc1C(O)c1ccnc(C(F)(F)F)c1 (stereo not drawn) [Compound 78] in the records?
0

# Plant response rating, Rice lookup, item Cc1nn(-c2ccc(C(F)(F)F)cn2)nc1Oc1ccnc(C(F)(F)F)c1 [Compound 23]
30

====

# Tested on: panicum, fall (fall panicum Panicum dichotomiflorum)
# PROTOCOL_NOTES: Test F pre-/postemergence: panicum, fall
# Assay type: in vivo
# EXPERIMENTAL_CONDITIONS: Preemergence, 31 g ai/ha; scale 0 to 100, 0 no effect, 100 complete control
The entries below come with measured Plant response rating, Panicum, Fall values attached.
// print number alone

Below, each entry is followed by its recorded Plant response rating, Panicum, Fall result.
Cc1nn(-c2ccc(F)cc2F)nc1Oc1ccnc(C(F)(F)F)c1 = 5
CCOc1nn(-c2ccc(F)cc2)nc1Cc1ccnc(C(F)(F)F)c1 = 98
CCc1nn(-c2ccc(F)cc2)nc1Cc1ccnc(C(F)(F)F)c1 = 90
CCc1nn(-c2ccc(F)c(F)c2)nc1Oc1ccnc(C(F)(F)F)c1 = 65
COc1nn(-c2cccc(F)c2)nc1Cc1ccnc(C(F)(F)F)c1 = 25

Consider the additional compound presented here.
So what does the record say about Plant response rating, Panicum, Fall for CCCc1nn(-c2ccc(F)c(F)c2)nc1Oc1ccnc(C(F)(F)F)c1 ?
75

====

# Test system: velvetleaf (Abutilon theophrasti)
# PROTOCOL_NOTES: Test C pre-/postemergence: velvetleaf
# Format: in vivo
# EXPERIMENTAL_CONDITIONS: Preemergence, 31 g ai/ha; scale 0 (no effect) to 100 (complete control)
READOUT_LABEL: Plant response rating, Velvetleaf

Worked examples, 3 molecules total:
CCc1nn(-c2ccc(C(F)(F)F)cc2)nc1Oc1ccnc(C(F)(F)F)c1 [Compound 169] = 50
CCCc1nn(-c2ccc(F)c(F)c2)nc1Oc1ccnc(C(F)(F)F)c1 [Compound 172] = 60
CCCc1nn(-c2ccc(F)cc2F)nc1Oc1ccnc(C(F)(F)F)c1 [Compound 179] = 30

From here, focus on the item given below.
Consider the molecule shown here: CCOc1nn(-c2ccc(Cl)cc2)nc1Cc1ccnc(C(F)(F)F)c1 [Compound 188] What is its recorded Plant response rating, Velvetleaf?
45

====

# Tested on: field poppy (Papaver rhoeas)
# PROTOCOL_NOTES: Test D pre-/postemergence: field poppy
# Assay type: in vivo
# EXPERIMENTAL_CONDITIONS: Postemergence; 16 g ai/ha; scale 0 to 100
READOUT_LABEL: Plant response rating, Field Poppy
Give your answer as a number; write no unit.

The examples below pair each entry with its known result.
COc1nn(-c2ccc(C(F)(F)F)cc2)nc1Cc1ccnc(C(F)F)c1 [Compound 138] = 80
CCc1nn(-c2ccc(C(F)(F)F)cc2)nc1Cc1ccnc(C(F)(F)F)c1 [Compound 155] = 80

Plant response rating, Field Poppy lookup needed for COc1nn(-c2ccc(C(F)(F)F)cc2)nc1Cc1ccnc(C(F)(F)F)c1 [Compound 15] , thanks.
100

// lookup Plant response rating, Field Poppy for CCOc1nn(-c2ccc(F)cc2)nc1Cc1ccnc(C(F)(F)F)c1 [Compound 196]
100

Param item = Cc1nn(-c2ccc(C(F)(F)F)cn2)nc1Cc1cccc(C(F)(F)F)c1 [Compound 106] ; retrieve measured Plant response rating, Field Poppy.
100

====

# System: soybean (Glycine max)
# PROTOCOL_NOTES: Test C pre-/postemergence: soybean
# Type: in vivo
# EXPERIMENTAL_CONDITIONS: Preemergence, 125 g ai/ha; scale 0 to 100, 0 no effect, 100 complete control
# From the text: […] Treated plants and controls were maintained in a greenhouse for 13 to 15 days, after which time all species were compared to controls and visually evaluated. […]
READOUT_LABEL: Plant response rating, Soybean
// return a plain number; no unit text

For orientation, consider the following solved cases.
COc1nn(-c2ccc(C(F)(F)F)cc2)nc1Cc1ccnc(C(F)(F)F)c1 = 25
CCc1nn(-c2ccc(F)cc2)nc1Cc1ccnc(C(F)(F)F)c1 = 15
COc1nn(-c2cccc(F)c2)nc1Cc1ccnc(C(F)(F)F)c1 = 25
Cc1nn(-c2ccc(C(F)(F)F)cn2)nc1Oc1ccnc(C(F)(F)F)c1 = 10

API: value(readout=Plant response rating, Soybean, system=soybean (Glycine max)) for record FC(F)Oc1nn(-c2ccc(C(F)(F)F)cc2)nc1Cc1ccnc(C(F)(F)F)c1
5
